Target: Carbonic anhydrase 1 (Homo sapiens, UniProt P00915)
Sequence (P00915 whole entry): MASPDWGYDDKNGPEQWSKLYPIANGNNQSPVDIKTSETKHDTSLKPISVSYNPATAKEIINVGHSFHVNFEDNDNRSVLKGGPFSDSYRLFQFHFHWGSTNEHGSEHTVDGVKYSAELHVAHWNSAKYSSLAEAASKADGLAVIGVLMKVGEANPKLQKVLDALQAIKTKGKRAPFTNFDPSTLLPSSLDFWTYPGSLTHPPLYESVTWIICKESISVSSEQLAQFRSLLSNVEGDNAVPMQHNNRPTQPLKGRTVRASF
Experiment: 99 Tested for inhibition of human (cloned) isozyme Carbonic anhydrase I
Quantity: Ki (nM)
Report the value in nM with no unit label.

In plain terms, `NS(=O)(=O)c1ccc(NC(=O)c2c(F)c(F)c(F)c(F)c2F)cc1` has a documented Ki of 950

====

Target: Carbonic anhydrase 1 (Homo sapiens)
So basically: is Ki under 2000 nM? Then t. Not under? Then f.

smi=NS(=O)(=O)c1ccc(CCNS(=O)(=O)C(F)(F)C(F)(F)C(F)(F)C(F)(F)F)cc1 label=f
smi=NS(=O)(=O)c1ccc(NS(=O)(=O)C(F)(F)C(F)(F)C(F)(F)C(F)(F)F)c(Cl)c1 label=f
smi=NS(=O)(=O)c1nc2ccc(OS(=O)(=O)C(F)(F)C(F)(F)C(F)(F)C(F)(F)C(F)(F)C(F)(F)C(F)(F)C(F)(F)F)cc2s1 label=t
smi=NS(=O)(=O)c1cc(S(N)(=O)=O)c(NC(=O)c2c(F)c(F)c(F)c(F)c2F)c(Cl)c1Cl label=t
smi=NS(=O)(=O)c1ccccc1NC(=O)C(F)(F)C(F)(F)C(F)(F)C(F)(F)C(F)(F)C(F)(F)C(F)(F)C(F)(F)F label=t
smi=NS(=O)(=O)c1ccc(CNS(=O)(=O)C(F)(F)F)cc1 label=f
smi=NS(=O)(=O)c1ccc(COC(=O)c2c(F)c(F)c(F)c(F)c2F)cc1 label=t
smi=NS(=O)(=O)c1nc2ccc(OS(=O)(=O)c3c(F)c(F)c(F)c(F)c3F)cc2s1 label=t
smi=NS(=O)(=O)c1ccc(COS(=O)(=O)c2c(F)c(F)c(F)c(F)c2F)cc1 label=t
smi=NS(=O)(=O)c1nc2ccc(OCCOS(=O)(=O)C(F)(F)C(F)(F)C(F)(F)C(F)(F)C(F)(F)C(F)(F)C(F)(F)C(F)(F)F)cc2s1 label=t

Data request: API: query returns whether the compound falls strictly under 2000 nM in Ki. Query: `NS(=O)(=O)c1cccc(NS(=O)(=O)c2ccc(NS(=O)(=O)C(F)(F)F)cc2)c1`
Data returned: f

Data request: API: query returns whether the compound falls strictly under 2000 nM in Ki. Query: `NS(=O)(=O)c1ccc(NS(=O)(=O)C(F)(F)F)c(F)c1`
Data returned: f

Data request: API: query returns whether the compound falls strictly under 2000 nM in Ki. Query: `NS(=O)(=O)c1cc(S(N)(=O)=O)c(NC(=O)c2c(F)c(F)c(F)c(F)c2F)cc1Cl`
Data returned: t

Data request: API: query returns whether the compound falls strictly under 2000 nM in Ki. Query: `NS(=O)(=O)c1ccc(NS(=O)(=O)c2c(F)c(F)c(F)c(F)c2F)c(Br)c1`
Data returned: t

Data request: API: query returns whether the compound falls strictly under 2000 nM in Ki. Query: `NS(=O)(=O)c1nnc(NC(=O)CCNC(=O)C(F)(F)C(F)(F)C(F)(F)C(F)(F)C(F)(F)C(F)(F)C(F)(F)C(F)(F)F)s1`
Data returned: t

Data request: API: query returns whether the compound falls strictly under 2000 nM in Ki. Query: `NS(=O)(=O)c1nc2ccc(NS(=O)(=O)c3c(F)c(F)c(F)c(F)c3F)cc2s1`
Data returned: t

Data request: API: query returns whether the compound falls strictly under 2000 nM in Ki. Query: `NS(=O)(=O)c1nc2ccc(NS(=O)(=O)C(F)(F)C(F)(F)C(F)(F)C(F)(F)C(F)(F)C(F)(F)C(F)(F)C(F)(F)F)cc2s1`
Data returned: t

====

Molecular target: UniProt P00915
Entries annotated with measured Ki
Report the value in nM with no unit label.

As a guide, the following entries are already answered.
smi=NS(=O)(=O)c1ccc(NS(=O)(=O)C(F)(F)C(F)(F)C(F)(F)C(F)(F)C(F)(F)C(F)(F)C(F)(F)C(F)(F)F)c(Br)c1 quantity=Ki measured_result=2550
smi=NS(=O)(=O)c1nnc(NC(=O)CCNS(=O)(=O)C(F)(F)F)s1 quantity=Ki measured_result=3000
smi=NS(=O)(=O)c1ccc(CCNS(=O)(=O)c2c(F)c(F)c(F)c(F)c2F)cc1 quantity=Ki measured_result=760
smi=NS(=O)(=O)c1nnc(NC(=O)CCNS(=O)(=O)C(F)(F)C(F)(F)C(F)(F)C(F)(F)F)s1 quantity=Ki measured_result=300

Tested on UniProt P00915: `NS(=O)(=O)c1ccc(NS(=O)(=O)C(F)(F)F)c(I)c1` . Observed Ki: 210000

====

Biological target: Carbonic anhydrase 4 (Bos taurus)
Sequence (Q95323 whole entry): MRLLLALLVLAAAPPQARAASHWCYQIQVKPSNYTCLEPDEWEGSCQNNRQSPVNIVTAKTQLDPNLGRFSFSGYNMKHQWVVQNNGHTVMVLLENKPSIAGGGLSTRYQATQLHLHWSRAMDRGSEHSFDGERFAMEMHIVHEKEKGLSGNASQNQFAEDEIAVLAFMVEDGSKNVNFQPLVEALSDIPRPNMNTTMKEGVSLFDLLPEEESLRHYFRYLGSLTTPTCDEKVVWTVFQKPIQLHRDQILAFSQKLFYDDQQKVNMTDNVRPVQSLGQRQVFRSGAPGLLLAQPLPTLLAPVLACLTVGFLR
Entries annotated with measured log10 Ki
Heads up, the numbers here are log10 of Ki in nM units.

As a guide, the following entries are already answered.
smi=NS(=O)(=O)c1cccc(NS(=O)(=O)c2ccc(NC(=O)C(F)(F)C(F)(F)C(F)(F)C(F)(F)C(F)(F)C(F)(F)C(F)(F)C(F)(F)F)cc2)c1 quantity="log10 Ki" measured_result=1.48
smi=Cn1nc(S(N)(=O)=O)s/c1=N/S(=O)(=O)c1ccc(NS(=O)(=O)C(F)(F)C(F)(F)C(F)(F)C(F)(F)C(F)(F)C(F)(F)C(F)(F)C(F)(F)F)cc1 quantity="log10 Ki" measured_result=1.40

Query compound follows.
Tested on Carbonic anhydrase 4 (Bos taurus): `NS(=O)(=O)c1nnc(NC(=O)c2c(F)c(F)c(F)c(F)c2F)s1` . Observed log10 Ki: 1.00

====

As a worked illustration, we turn to pKi data collected for Carbonic anhydrase 1 (Homo sapiens).
On this scale, pKi is minus log10 of a concentration expressed in M (mol/L).

smi=NS(=O)(=O)c1ccc(NC(=O)C(F)(F)C(F)(F)C(F)(F)C(F)(F)C(F)(F)C(F)(F)C(F)(F)C(F)(F)F)c(Cl)c1 measured_result=5.64

In plain terms, `NS(=O)(=O)c1ccc(COC(=O)C(F)(F)C(F)(F)C(F)(F)C(F)(F)C(F)(F)C(F)(F)C(F)(F)C(F)(F)F)cc1` has a documented pKi of 4.82

In plain terms, `NS(=O)(=O)c1ccc(Nc2ccnc(NC(=O)c3c(F)c(F)c(F)c(F)c3F)n2)cc1` has a documented pKi of 5.11

In plain terms, `Cn1nc(S(N)(=O)=O)s/c1=N/S(=O)(=O)c1ccc(NC(=O)C(F)(F)C(F)(F)C(F)(F)C(F)(F)C(F)(F)C(F)(F)C(F)(F)C(F)(F)F)cc1` has a documented pKi of 6.05

In plain terms, `NS(=O)(=O)c1ccc(Nc2ccnc(NS(=O)(=O)C(F)(F)C(F)(F)C(F)(F)C(F)(F)F)n2)cc1` has a documented pKi of 5.22

In plain terms, `NS(=O)(=O)c1ccc(CCNS(=O)(=O)C(F)(F)C(F)(F)C(F)(F)C(F)(F)C(F)(F)C(F)(F)C(F)(F)C(F)(F)F)cc1` has a documented pKi of 6.02

In plain terms, `NS(=O)(=O)c1nnc(NC(=O)c2c(F)c(F)c(F)c(F)c2F)s1` has a documented pKi of 6.60

In plain terms, `NS(=O)(=O)c1ccc(NS(=O)(=O)C(F)(F)C(F)(F)C(F)(F)C(F)(F)F)c(Br)c1` has a documented pKi of 4.69

In plain terms, `NS(=O)(=O)c1nnc(NS(=O)(=O)c2ccc(NC(=O)c3c(F)c(F)c(F)c(F)c3F)cc2)s1` has a documented pKi of 5.82

====

Biological target: Carbonic anhydrase 1 (Homo sapiens)
Entries annotated with measured pKi
On this scale, pKi is minus log10 of a concentration expressed in M (mol/L).

As a guide, the following entries are already answered.
smi=NS(=O)(=O)c1ccc(CCNC(=O)C(F)(F)C(F)(F)C(F)(F)C(F)(F)C(F)(F)C(F)(F)C(F)(F)C(F)(F)F)cc1 quantity=pKi measured_result=6.02
smi=NS(=O)(=O)c1ccc(CNS(=O)(=O)C(F)(F)C(F)(F)C(F)(F)C(F)(F)F)cc1 quantity=pKi measured_result=4.89
smi=NS(=O)(=O)c1ccc(NNS(=O)(=O)C(F)(F)C(F)(F)C(F)(F)C(F)(F)F)cc1 quantity=pKi measured_result=4.82
smi=NS(=O)(=O)c1ccc(CCOS(=O)(=O)C(F)(F)C(F)(F)C(F)(F)C(F)(F)F)cc1 quantity=pKi measured_result=4.68
smi=NS(=O)(=O)c1nc2ccc(OCCOC(=O)C(F)(F)C(F)(F)C(F)(F)C(F)(F)C(F)(F)C(F)(F)C(F)(F)C(F)(F)F)cc2s1 quantity=pKi measured_result=7.62
smi=NS(=O)(=O)c1nc2ccc(NS(=O)(=O)C(F)(F)F)cc2s1 quantity=pKi measured_result=7.15
smi=NS(=O)(=O)c1ccc(NNC(=O)c2c(F)c(F)c(F)c(F)c2F)cc1 quantity=pKi measured_result=5.82

Query molecule follows.
In plain terms, `NS(=O)(=O)c1ccc(NS(=O)(=O)C(F)(F)C(F)(F)C(F)(F)C(F)(F)C(F)(F)C(F)(F)C(F)(F)C(F)(F)F)c(F)c1` has a documented pKi of 5.84
